- Assayed System: human TLR7 (Homo sapiens (Human), UniProt Q9NYK1)
- Sequence (Q9NYK1 27-1049): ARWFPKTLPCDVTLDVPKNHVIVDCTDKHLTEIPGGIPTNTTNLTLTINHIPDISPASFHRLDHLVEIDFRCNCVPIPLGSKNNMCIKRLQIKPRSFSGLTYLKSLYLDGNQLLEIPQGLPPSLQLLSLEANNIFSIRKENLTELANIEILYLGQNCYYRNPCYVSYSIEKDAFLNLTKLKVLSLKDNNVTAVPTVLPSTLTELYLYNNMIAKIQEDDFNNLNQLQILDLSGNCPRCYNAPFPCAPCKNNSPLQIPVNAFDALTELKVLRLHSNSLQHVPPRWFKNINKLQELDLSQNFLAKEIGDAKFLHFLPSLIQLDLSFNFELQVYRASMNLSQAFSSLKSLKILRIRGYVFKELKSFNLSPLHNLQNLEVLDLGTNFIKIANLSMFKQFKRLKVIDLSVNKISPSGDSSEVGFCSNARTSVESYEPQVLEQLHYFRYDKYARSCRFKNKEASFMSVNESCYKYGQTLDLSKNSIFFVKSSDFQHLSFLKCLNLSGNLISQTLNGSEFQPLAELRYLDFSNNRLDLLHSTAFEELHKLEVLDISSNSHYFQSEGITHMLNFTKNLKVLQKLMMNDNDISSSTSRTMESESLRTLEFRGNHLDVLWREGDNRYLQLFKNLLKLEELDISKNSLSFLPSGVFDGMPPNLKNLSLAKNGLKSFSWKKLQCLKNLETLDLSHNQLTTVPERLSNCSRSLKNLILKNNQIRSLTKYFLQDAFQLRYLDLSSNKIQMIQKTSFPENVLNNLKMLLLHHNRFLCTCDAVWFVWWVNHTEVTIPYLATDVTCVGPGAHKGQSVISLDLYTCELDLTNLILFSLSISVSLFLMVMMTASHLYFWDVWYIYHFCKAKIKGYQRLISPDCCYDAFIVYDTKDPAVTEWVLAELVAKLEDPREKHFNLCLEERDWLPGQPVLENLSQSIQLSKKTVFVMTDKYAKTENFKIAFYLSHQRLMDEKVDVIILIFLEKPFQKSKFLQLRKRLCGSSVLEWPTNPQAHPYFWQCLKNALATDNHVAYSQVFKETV
- Measurement Notes: TLR7 inhibition reporter assay (HEK-Blue, SEAP)
- Setup Conditions: HEK-Blue cells overexpressing human TLR7, gardiquimod 7.5 μM stimulation
Property Measured: IC50 (µM)

The cases that follow already have their IC50 on record.
- Cc1cc(-c2[nH]c3ccc(-c4ccc(C(=O)N5CCC(NC(C)C)CC5)cc4)cc3c2C(C)C)ccn1 [Example 321]: 0.037
- COc1ccc(-c2[nH]c3ccc(-c4nc(C(=O)N5CC6CNCC6C5)co4)cc3c2C(C)C)cc1OC (stereo not shown) [Example 127]: 0.021
- COc1ccc(-c2[nH]c3ccc(-c4nnc(N5CCNCC5)o4)cc3c2C(C)C)cc1OC [Example 105]: 0.019
- Cc1cc(-c2[nH]c3ccc(-c4nnc(C5CCCN(C(C)C)C5)[nH]4)cc3c2C(C)C)ccn1 (stereo not shown) [Example 205]: 0.032
- COc1ccc(-c2[nH]c3ccc(-c4cccc(C(=O)NCCN5CCOCC5)c4)cc3c2CC(F)(F)F)cc1OC [Example 29]: 0.416

1: Cc1cc(-c2[nH]c3ccc(-c4nnc([C@@H]5CCCNC5)o4)cc3c2C(C)C)ccn1 [Example 80]
2: COc1ccc(-c2[nH]c3ccc(-c4cnc(N5CCN(C(C)C)CC5)cc4C)cc3c2C(C)C)cc1OC [Example 420]
Prompt: Name the one with the greater IC50 value, either 1 or 2 as given. Answer = label.
Response: 2
(2: 0.334 µM, 1: 0.019 µM)

###

- Assayed System: human TLR8 (Homo sapiens (Human), UniProt Q9NR97)
- Sequence (Q9NR97 27-1041): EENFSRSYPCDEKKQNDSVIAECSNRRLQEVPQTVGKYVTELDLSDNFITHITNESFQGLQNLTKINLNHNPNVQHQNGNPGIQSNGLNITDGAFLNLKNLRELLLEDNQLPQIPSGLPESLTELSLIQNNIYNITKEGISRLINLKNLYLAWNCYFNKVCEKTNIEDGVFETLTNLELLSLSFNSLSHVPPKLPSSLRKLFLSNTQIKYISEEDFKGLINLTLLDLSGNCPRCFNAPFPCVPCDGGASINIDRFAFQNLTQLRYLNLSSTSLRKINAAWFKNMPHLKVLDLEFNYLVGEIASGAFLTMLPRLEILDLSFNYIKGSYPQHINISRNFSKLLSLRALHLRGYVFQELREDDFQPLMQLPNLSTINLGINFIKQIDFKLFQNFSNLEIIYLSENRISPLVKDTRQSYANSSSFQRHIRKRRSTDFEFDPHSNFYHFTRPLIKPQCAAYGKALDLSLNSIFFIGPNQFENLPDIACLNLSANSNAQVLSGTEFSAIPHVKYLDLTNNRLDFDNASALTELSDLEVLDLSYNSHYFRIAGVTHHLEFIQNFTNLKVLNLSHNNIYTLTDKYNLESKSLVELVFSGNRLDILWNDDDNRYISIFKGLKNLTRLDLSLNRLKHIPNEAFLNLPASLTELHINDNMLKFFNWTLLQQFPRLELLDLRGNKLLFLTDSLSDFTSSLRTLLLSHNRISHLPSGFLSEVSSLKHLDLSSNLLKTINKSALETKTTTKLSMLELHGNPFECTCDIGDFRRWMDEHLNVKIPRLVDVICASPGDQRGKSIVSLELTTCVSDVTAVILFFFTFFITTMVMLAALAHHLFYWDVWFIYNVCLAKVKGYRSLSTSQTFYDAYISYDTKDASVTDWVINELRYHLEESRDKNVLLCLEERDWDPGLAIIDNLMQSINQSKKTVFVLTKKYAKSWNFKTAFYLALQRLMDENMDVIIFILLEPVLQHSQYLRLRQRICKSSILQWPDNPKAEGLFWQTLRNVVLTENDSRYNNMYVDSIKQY
- Measurement Notes: TLR8 inhibition reporter assay (HEK-Blue, SEAP)
- Setup Conditions: HEK-Blue cells overexpressing human TLR8, R848 15.9 μM stimulation
Property Measured: IC50 (nM)

Known IC50 results, listed for orientation:
* CC(C)c1c(-c2ccnc3[nH]ncc23)[nH]c2ccc(-c3nnc(C(=O)N4CCCN(C)CC4)o3)cc12 | 40
* COCCN(CCOC)Cc1nnc(-c2ccc3[nH]c(-c4ccc(OC)c(OC)c4)c(C(C)C)c3c2)o1 | 362
* CC(=O)N1CCCN(Cc2nnc(-c3ccc4[nH]c(-c5ccnc6[nH]ncc56)c(C(C)C)c4c3)o2)CC1 | 127
* Cc1cc(-c2[nH]c3ccc(-c4nnc(C5CCCN(C(C)C)C5)o4)cc3c2CC(F)F)cc(C)n1 (stereo not drawn) [Example 327] | 10

A: COc1ccc(-c2[nH]c3ccc(-c4cnc(N5CCN(C)CC5)nc4)cc3c2C(C)C)cc1OC
B: Cc1cc(-c2[nH]c3ccc(-c4ccc(NC(=O)[C@@H]5CCNC5)nc4)cc3c2C(C)C)ccn1
C: Cc1cc(-c2[nH]c3ccc(-c4cc5c(s4)CN(Cc4c[nH]c(C)n4)CC5)cc3c2C(C)C)cc(C)n1
D: COc1ccc(-c2[nH]c3ccc(-c4ccnc(C(=O)N[C@H]5CC[C@H](C(C)(C)O)CC5)c4)cc3c2C(C)C)cc1OC
Prompt: List by increasing IC50. Rank them, then answer with their labels in that order.
Response: C, A, B, D

A: CC(C)c1c(-c2ccnc3[nH]ncc23)[nH]c2ccc(-c3nc4n(n3)CCNC4)cc12
B: CNCCNc1ccc(-c2ccc3[nH]c(-c4ccc(OC)c(OC)c4)c(C(C)C)c3c2)cc1
Prompt: Between A and B , which one has the lower reported IC50 value? Refer to your chosen entry by its label in the reply.
Response: A
(A: 11 nM, B: 38 nM)

P: CCN(CCN(C)C)C(=O)c1nnc(-c2ccc3[nH]c(-c4cc(C)nc(C)c4)c(C(C)C)c3c2)o1
Q: Cc1cc(-c2[nH]c3ccc(-c4cc5c(s4)CN(C(=O)CS(C)(=O)=O)CC5)cc3c2C(C)C)cc(C)n1
R: Cc1cc(-c2[nH]c3ccc(-c4ccc(C(=O)N5CCC(NC(C)C)CC5)cc4)cc3c2C(C)C)ccn1
Prompt: Hi! Can you put these in order of IC50, lowest number first? Returns: the labels arranged in the requested order.
Response: P, R, Q

a: CCc1c(-c2ccc(OC)c(OC)c2)[nH]c2ccc(-c3nnc(C(=O)N4CC5CNCC5C4)o3)cc12 (stereo not drawn)
b: Cc1cc(-c2[nH]c3ccc(-c4cc5c(s4)CN(C)CC5)cc3c2C(C)C)ccn1
Prompt: For the two items a and b , which reports the higher IC50 value? In your reply, give the label of the chosen option.
Response: a
